System: L. crispatus and E. coli
test.details: Therapeutic effect protocol: L. crispatus / E. coli co-culture in LAPT-g medium with carbon source
Assay type: cell-based
condition.description: therapeutic agent (carbon source) 1 wt/vol %; co-culture incubated anaerobically at 37° C.; measured 36 hours after inoculation
observed.property: L. crispatus/ E. coli ratio

O=CC[C@H](O)[C@H](O)CO
161
OC[C@H]1O[C@@](CO)(O[C@H]2O[C@H](CO)[C@@H](O[C@H]3O[C@H](CO)[C@@H](O)[C@H](O)[C@H]3O)[C@H](O)[C@H]2O)[C@@H](O)[C@@H]1O
32.1
OC[C@H]1O[C@@](CO)(OC[C@@]2(O[C@H]3O[C@H](CO)[C@@H](O)[C@H](O)[C@H]3O)O[C@H](CO)[C@@H](O)[C@@H]2O)[C@@H](O)[C@@H]1O
640
OC[C@@H](O)[C@@H](O[C@H]1O[C@H](CO)[C@@H](O)[C@H](O)[C@H]1O)[C@H](O)[C@@H](O)CO
202
